Reference source for all entries: patent US20120309750A1

Recorded IC50 values for a group of compounds are listed next.
tested on: human colorectal cancer cells (HCT116); test: Growth inhibition assay (cytotoxicity) in HCT116; type: cell-based; conditions: HCT-116

Examples with answers:
{"Compound": "CCNC(=O)c1noc(-c2cc(C(C)C)c(O)cc2O)c1-c1noc(C(F)(F)F)n1", "IC50": "< 500 nM"}
{"Compound": "CCNC(=O)c1noc(-c2cc(C(C)C)c(O)cc2O)c1-c1noc(C(C)C)n1", "IC50": "< 500 nM"}

Entry under test: `CCNC(=O)c1noc(-c2cc(C(C)C)c(O)cc2O)c1-c1cc(-c2ccsc2)no1` . Its IC50 was < 500 nM

Entry under test: `CCNC(=O)c1noc(-c2cc(C(C)C)c(O)cc2O)c1-c1cc(C(=O)OCC)no1` . Its IC50 was > 1000 nM

Entry under test: `CCNC(=O)c1noc(-c2cc(C(C)C)c(O)cc2O)c1-c1noc(SC)n1` . Its IC50 was 500 to 1000 nM

Entry under test: `CCNC(=O)c1noc(-c2cc(C(C)C)c(O)cc2O)c1-c1cc(CN2CCCCC2)no1` . Its IC50 was < 500 nM

Entry under test: `CCNC(=O)c1noc(-c2cc(C(C)C)c(O)cc2O)c1-c1noc(CN2CCCC2)n1` . Its IC50 was < 500 nM

Entry under test: `CCNC(=O)c1noc(-c2cc(C(C)C)c(O)cc2O)c1-c1noc(N)n1` . Its IC50 was < 500 nM

Entry under test: `CCNC(=O)c1noc(-c2cc(C(C)C)c(O)cc2O)c1-c1noc(CC)n1` . Its IC50 was < 500 nM

Entry under test: `CCNC(=O)c1noc(-c2cc(C(C)C)c(O)cc2O)c1-c1noc(C(=O)OC)n1` . Its IC50 was > 1000 nM

Entry under test: `CCNC(=O)c1noc(-c2cc(C(C)C)c(O)cc2O)c1-c1ccsc1CN1CCOCC1` . Its IC50 was < 500 nM

Entry under test: `CCNC(=O)c1noc(-c2cc(C(C)C)c(O)cc2O)c1-c1cc[nH]n1` . Its IC50 was < 500 nM

Entry under test: `CCC(=O)NCc1noc(-c2cc(C(C)C)c(O)cc2O)c1-c1ccsc1` . Its IC50 was > 1000 nM

Entry under test: `CCNC(=O)c1noc(-c2cc(C(C)C)c(O)cc2O)c1-c1noc(N(CC)CC)n1` . Its IC50 was < 500 nM

Entry under test: `CCNC(=O)c1noc(-c2cc(C(C)C)c(O)cc2O)c1-c1noc(CN2CCOCC2)n1` . Its IC50 was < 500 nM

Entry under test: `CCNC(=O)c1noc(-c2cc(C(C)C)c(O)cc2O)c1-c1cc(C(=O)N2CCOCC2)no1` . Its IC50 was < 500 nM

Entry under test: `CCNC(=O)c1noc(-c2cc(C(C)C)c(O)cc2O)c1-c1cc(C(=O)O)no1` . Its IC50 was > 1000 nM

Entry under test: `CCNC(=O)c1noc(-c2cc(C(C)C)c(O)cc2O)c1-c1noc(C2CCCCC2)n1` . Its IC50 was < 500 nM

Entry under test: `CCNC(=O)c1noc(-c2cc(C(C)C)c(O)cc2O)c1-c1cc(C(OC)OC)no1` . Its IC50 was < 500 nM
